Tested on: rat SEZ6
Sequence (as listed by the source): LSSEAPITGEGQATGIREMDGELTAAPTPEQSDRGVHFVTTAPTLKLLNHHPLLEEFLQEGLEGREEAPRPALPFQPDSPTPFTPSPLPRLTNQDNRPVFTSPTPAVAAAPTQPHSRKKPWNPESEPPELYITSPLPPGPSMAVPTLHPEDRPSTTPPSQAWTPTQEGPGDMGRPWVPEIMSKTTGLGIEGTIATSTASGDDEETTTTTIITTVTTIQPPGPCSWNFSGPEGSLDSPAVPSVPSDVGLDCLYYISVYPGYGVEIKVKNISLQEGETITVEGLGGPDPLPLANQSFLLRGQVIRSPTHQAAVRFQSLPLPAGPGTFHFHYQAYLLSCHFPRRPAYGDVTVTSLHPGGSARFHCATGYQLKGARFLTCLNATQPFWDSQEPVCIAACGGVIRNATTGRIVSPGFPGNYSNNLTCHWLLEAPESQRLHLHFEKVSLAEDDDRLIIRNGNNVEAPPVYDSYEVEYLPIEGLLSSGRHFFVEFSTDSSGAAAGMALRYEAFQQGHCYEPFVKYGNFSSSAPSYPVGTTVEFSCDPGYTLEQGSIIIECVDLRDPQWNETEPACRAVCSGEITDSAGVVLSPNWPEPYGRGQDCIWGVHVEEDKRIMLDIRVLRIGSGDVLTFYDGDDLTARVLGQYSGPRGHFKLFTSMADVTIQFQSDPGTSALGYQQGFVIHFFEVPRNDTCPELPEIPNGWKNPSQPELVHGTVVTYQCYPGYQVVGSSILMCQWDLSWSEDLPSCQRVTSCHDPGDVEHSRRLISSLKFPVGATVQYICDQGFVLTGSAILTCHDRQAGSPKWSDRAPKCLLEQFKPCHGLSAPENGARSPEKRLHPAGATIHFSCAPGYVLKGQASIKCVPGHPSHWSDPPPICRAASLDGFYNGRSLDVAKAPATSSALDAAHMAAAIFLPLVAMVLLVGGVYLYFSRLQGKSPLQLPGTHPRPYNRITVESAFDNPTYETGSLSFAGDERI
MEASUREMENT_DESCRIPTION: Flow cytometry cross reactivity, RIN-m5F cells
Assay type: binding
MEASUREMENT_CONDITIONS: 5 μg/mL antibody
MEASUREMENT_NAME: cross reactivity to rat SEZ6

Take a look at these entries with their results.
[[record]]
molecule = "SC17.19: murine anti-SEZ6 antibody (antibody, V domains shown, Murine SC17.19 VH; Murine SC17.19 VL, murine anti-SEZ6 antibody) VH: DVQLQESGPGLVKPSQSLSVTCTVTGYSITSSYTWNWIRQFPGNKLEWMGYIHYSGSTNYNPSLRSRISITRDTSKNQFFLQLNSVTTEDTATYYCARSRYYYDAYGFAYWGQGTLVTVSA VL: DIVLTQSPASLAVSLGQRAAISCKPSQSVDYDGDSYMNWYQQKPGQPPKLLIYAASNLESGIPARFSGSGSGTDFTLNIHPVEEEDAATYYCHQINDDPWTFGGGTKLK"
measurement_name = "cross reactivity to rat SEZ6"
observed_measurement = "cross reactive"

[[record]]
molecule = "SC17.28: murine anti-SEZ6 antibody (antibody, V domains shown, Murine SC17.28 VH; Murine SC17.28 VL, murine anti-SEZ6 antibody) VH: QVHLPQSRPELVKPGASVKISCKASGYGFTRSYIHWVKQRPGQGLEWIGYISSGSGGTTYNQKFKGKASLTADNPSSTAYMHLSSLTSEDSAIYFCARGGVRYFDVWGAGTTVTVSS VL: DILLTQSPAILSVSPGEGVSFSCRASQSIGTSIHWYQQRTNGSPRLLIKYASESISGIPSRFSGSGSGTDFTLRINSLESEDIADYYCQQSNSWPLTFGAGTKLELK"
measurement_name = "cross reactivity to rat SEZ6"
observed_measurement = "cross reactive"

[[record]]
molecule = "SC17.42: murine anti-SEZ6 antibody (antibody, V domains shown, Murine SC17.42 VH; Murine SC17.42 VL, murine anti-SEZ6 antibody) VH: DVKLVESGGGLVRPGGSLKLSCAASGFTFSRYTMSWVRQTPEKRLEWAATINSGGSNTYYPDSVKGRFTISRDNAKNTLFLQMSSLKSEDTAMYYCTNGNHWGQGTTLTVSS VL: ENVLTQSPAIMSASPGEKVTMTCSASSSVNYMYWYQQKSSTSPKLWIYDTSKLTSGVPGRFSGSGSGNSYSLTISNMEAEDVATYYCFQGSGYPLTFGSGTKLEIK"
measurement_name = "cross reactivity to rat SEZ6"
observed_measurement = "cross reactive"

[[record]]
molecule = "SC17.34: murine anti-SEZ6 antibody (antibody, V domains shown, Murine SC17.34 VH; Murine SC17.34 VL, murine anti-SEZ6 antibody) VH: EVQLQQSGPELVKPGSSVKISCKASGYTFTDYNMDWVKQSHGKRLEWIGYIYPDNGGAGYNQKFKGKATLTVDKSSSTAYMELRSLTSEDSAVYYCSRSITTAWFAYWGQGTLVTVSA VL: DIKMTQSPSSMYASLGERVTITCKASQDINSYLSWFQQKPGKSPKTLIYRANRLVDGVPSRFSGSGSGQDYSLTISSLEYEDMGIYYCLQYDEFPPTFGGGTKLEIK"
measurement_name = "cross reactivity to rat SEZ6"
observed_measurement = "cross reactive"

[[record]]
molecule = "SC17.6: murine anti-SEZ6 antibody; SC17.6 is duplicate of SC17.16 (antibody, V domains shown, Murine SC17.16 VH; Murine SC17.16 VL) VH: EVQLQQSGPELMKPGASVKMSCKASGYTFTDYNMYWVKQNQGKSLEWIGEINPNNGGTAYNQKFRGKATLTVDKSSSTAYMELRSLTSEDSAVYYCARYDKGFDYWGQGTTLTVSS VL: DIQMTQSPASLSVSVGETVTITCRASANINSNLVWYQQKQGKSPQLLVYAATNLADGVPSRFSGSGSGTQYSLKINSLQSEDFGNYYCQHFWGTPRTFGGGTKLEIK"
measurement_name = "cross reactivity to rat SEZ6"
observed_measurement = "cross reactive"


Input: Name the reported cross reactivity to rat SEZ6 value associated with the molecule SC17.17: murine anti-SEZ6 antibody (antibody, V domains shown, Murine SC17.17 VH; Murine SC17.17 VL, murine anti-SEZ6 antibody) VH: EVQLQQSGPEVMKPGASVKMSCKASGYTFTDYNMHWVKQNQGKSLEWIGEINPNIGGTGYNQKFKGKATLTVHKSSSTAYMELRSLTSEDSAVYYCARTYSYYSYEFAYWGQGTLVTVSA VL: QIVLTQSPAIMSASPGEKVTMTCSASSSVSYMHWYQQKSGTSPKRWIYDTSKLPSGVPARFSGSGSGTSYSLTISSMEAEDAATYYCQQWSSTPPTFGAGTKLELK
Output: cross reactive
